Data credit: ChEMBL document CHEMBL2062390

Here we list compounds with their recorded GI50 when tested on MOLM-13.
Measured endpoint: GI50 (nM)

chemical_string=CN1CCN(c2ccc(C(=O)Nc3cc(-c4ccc(CNC(=O)OCc5cccnc5)cc4)n[nH]3)cc2)CC1 measured_endpoint=GI50 measured_result=2
chemical_string=Cc1nc(Nc2cc(-c3ccc(CNC(=O)OCc4ccccc4)cc3)n[nH]2)cc(N2CCN(CCO)CC2)n1 measured_endpoint=GI50 measured_result=2
chemical_string=CN1CCN(c2ccc(C(=O)Nc3cc(-c4ccc(NC(=O)Oc5ccccc5)cc4)n[nH]3)cc2)CC1 measured_endpoint=GI50 measured_result=5
chemical_string=Cc1nc(Nc2cc(-c3ccc(CNC(=O)OCc4ccccc4)cc3)n[nH]2)cc(N2CCNCC2)n1 measured_endpoint=GI50 measured_result=6
chemical_string=Cc1cc(COC(=O)NCc2ccc(-c3cc(NC(=O)c4ccc(OCCN5CCCC5)cc4)[nH]n3)cc2)no1 measured_endpoint=GI50 measured_result=2
chemical_string=Cc1cc(COC(=O)NCc2ccc(-c3cc(NC(=O)c4ccc(OCCN5CCOCC5)cc4)[nH]n3)cc2)no1 measured_endpoint=GI50 measured_result=4
chemical_string=CN1CCN(c2ccc(C(=O)Nc3cc(-c4ccc(NS(=O)(=O)c5ccccc5)cc4)n[nH]3)cc2)CC1 measured_endpoint=GI50 measured_result=500
chemical_string=CN1CCN(c2ccc(C(=O)Nc3cc(-c4ccc(CNC(=O)Oc5ccccc5)cc4)n[nH]3)cc2)CC1 measured_endpoint=GI50 measured_result=20
chemical_string=Cc1cc(COC(=O)NCc2ccc(-c3cc(NC(=O)c4ccc(N5CCN(C)CC5)cc4)[nH]n3)cc2)no1 measured_endpoint=GI50 measured_result=1
chemical_string=O=C(NCc1ccc(-c2cc(NC(=O)c3ccc(OCCN4CCCC4)cc3)[nH]n2)cc1)OCc1ccccc1 measured_endpoint=GI50 measured_result=2
chemical_string=Cc1nc(Nc2cc(-c3ccc(CNC(=O)OCc4cccnc4)cc3)n[nH]2)cc(N2CCN(CCO)CC2)n1 measured_endpoint=GI50 measured_result=3
chemical_string=CN1CCN(c2ccc(C(=O)Nc3cc(-c4ccc(CNC(=O)OCc5ccccc5)cc4)n[nH]3)cc2)CC1 measured_endpoint=GI50 measured_result=2
chemical_string=O=C(NCc1ccc(-c2cc(NC(=O)c3ccc(OCCN4CCCC4)cc3)[nH]n2)cc1)OCc1cccnc1 measured_endpoint=GI50 measured_result=8
chemical_string=O=C(NCc1ccc(-c2cc(NC(=O)c3ccc(OCCN4CCOCC4)cc3)[nH]n2)cc1)OCc1ccccc1 measured_endpoint=GI50 measured_result=8
chemical_string=CN1CCN(Cc2ccc(C(=O)Nc3cc(-c4ccc(CNC(=O)OCc5ccccc5)cc4)n[nH]3)cc2)CC1 measured_endpoint=GI50 measured_result=4
chemical_string=Cc1nc(Nc2cc(-c3ccc(CNC(=O)OCc4ccccc4)cc3)n[nH]2)cc(N2CCN(C)CC2)n1 measured_endpoint=GI50 measured_result=2
chemical_string=O=C(NCc1ccc(-c2cc(NC(=O)c3ccc(OCCCN4CCCC4)cc3)[nH]n2)cc1)OCc1ccccc1 measured_endpoint=GI50 measured_result=9

----------
pIC50: −log10 of the molar value.
Here we list molecules with their recorded pIC50 when tested on Vascular endothelial growth factor receptor 2 (Homo sapiens, UniProt P35968).
Sequence (P35968 whole entry): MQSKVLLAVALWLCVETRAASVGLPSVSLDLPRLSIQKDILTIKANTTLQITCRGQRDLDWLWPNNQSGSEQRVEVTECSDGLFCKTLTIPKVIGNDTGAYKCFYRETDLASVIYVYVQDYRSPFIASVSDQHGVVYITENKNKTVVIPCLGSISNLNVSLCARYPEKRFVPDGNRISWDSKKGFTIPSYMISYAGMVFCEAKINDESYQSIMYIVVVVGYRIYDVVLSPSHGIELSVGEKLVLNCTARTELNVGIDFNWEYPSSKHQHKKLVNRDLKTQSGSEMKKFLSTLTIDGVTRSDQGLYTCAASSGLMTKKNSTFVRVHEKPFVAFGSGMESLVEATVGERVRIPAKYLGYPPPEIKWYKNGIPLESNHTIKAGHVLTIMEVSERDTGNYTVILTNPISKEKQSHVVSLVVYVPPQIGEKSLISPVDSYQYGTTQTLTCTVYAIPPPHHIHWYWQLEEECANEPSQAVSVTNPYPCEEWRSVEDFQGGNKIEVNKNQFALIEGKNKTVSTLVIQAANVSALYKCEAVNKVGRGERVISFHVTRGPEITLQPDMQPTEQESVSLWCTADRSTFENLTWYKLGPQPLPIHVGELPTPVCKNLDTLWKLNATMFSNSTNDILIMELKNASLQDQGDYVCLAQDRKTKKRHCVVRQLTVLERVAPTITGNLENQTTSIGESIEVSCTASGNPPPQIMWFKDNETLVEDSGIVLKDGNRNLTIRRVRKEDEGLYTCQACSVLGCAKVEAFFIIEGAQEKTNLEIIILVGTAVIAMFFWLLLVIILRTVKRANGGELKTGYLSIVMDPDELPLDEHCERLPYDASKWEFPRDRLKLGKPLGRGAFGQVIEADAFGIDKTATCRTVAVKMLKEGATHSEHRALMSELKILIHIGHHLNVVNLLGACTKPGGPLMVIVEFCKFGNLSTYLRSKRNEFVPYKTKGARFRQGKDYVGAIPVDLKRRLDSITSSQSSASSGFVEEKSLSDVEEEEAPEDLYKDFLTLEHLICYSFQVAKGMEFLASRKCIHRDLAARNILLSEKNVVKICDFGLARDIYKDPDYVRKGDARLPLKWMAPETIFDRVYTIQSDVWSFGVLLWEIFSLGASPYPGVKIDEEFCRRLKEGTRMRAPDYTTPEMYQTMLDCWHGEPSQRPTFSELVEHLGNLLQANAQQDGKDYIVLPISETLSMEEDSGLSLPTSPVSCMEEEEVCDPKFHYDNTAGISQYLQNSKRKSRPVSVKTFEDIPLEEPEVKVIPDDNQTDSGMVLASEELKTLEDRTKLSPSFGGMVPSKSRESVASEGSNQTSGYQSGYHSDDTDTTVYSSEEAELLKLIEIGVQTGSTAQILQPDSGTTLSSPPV
Measured endpoint: pIC50

chemical_string=Cc1cc(COC(=O)NCc2ccc(-c3cc(NC(=O)c4ccc(OCCN5CCCC5)cc4)[nH]n3)cc2)no1 qualifier== measured_result=6.32
chemical_string=O=C(NCc1ccc(-c2cc(NC(=O)c3ccc(OCCN4CCCC4)cc3)[nH]n2)cc1)OCc1cccnc1 qualifier=< measured_result=6.00
chemical_string=Cc1nc(Nc2cc(-c3ccc(CNC(=O)OCc4ccccc4)cc3)n[nH]2)cc(N2CCN(CCO)CC2)n1 qualifier== measured_result=6.62
chemical_string=CN1CCN(c2ccc(C(=O)Nc3cc(-c4ccc(CNS(=O)(=O)c5ccccc5)cc4)n[nH]3)cc2)CC1 qualifier=< measured_result=6.00
chemical_string=CN1CCN(c2ccc(C(=O)Nc3cc(-c4ccc(CNC(=O)Oc5ccccc5)cc4)n[nH]3)cc2)CC1 qualifier== measured_result=7.04
chemical_string=O=C(Nc1ccc(-c2cc(NC(=O)c3ccc(OCCN4CCCC4)cc3)[nH]n2)cc1)Oc1ccccc1 qualifier== measured_result=6.52
chemical_string=O=C(NCc1ccc(-c2cc(NC(=O)c3ccc(OCCN4CCOCC4)cc3)[nH]n2)cc1)OCc1ccccc1 qualifier== measured_result=6.43
chemical_string=Cc1nc(Nc2cc(-c3ccc(CNC(=O)OCc4cc(C)on4)cc3)n[nH]2)cc(N2CCN(CCO)CC2)n1 qualifier=< measured_result=6.00
